Tested On: Monocytes
Experiment: Competition of NW phage binding by NW peptide and its mutant peptides
Set-up: species or system human
Condition Details: dose-dependent inhibition; peptide concentrations 0.4, 2, 8, and 20 μM; read-out: inhibition of the NW phage binding, IC50
pIC50: −log10 of the molar value. Where no end group is shown, it is not given here.

{"Primary Sequence": "NWYLPWLGTNDWC [NW peptide, NWYLPWLGTNDWC]", "Tested On": "Monocytes", "pIC50": 6.30}

====

Tested On: Monocytes
Experiment: Competition of NW phage binding by NW peptide and its mutant peptides
Parameters: species or system human
Condition Details: monocytes; read-out: competition with the phage binding to monocytes, IC50
Where no end group is shown, it is not given here.

{"Primary Sequence": "NWYLPWLGTNDWC [NW peptide, NWYLPWLGTNDWC]", "IC50": "~500 nM"}

====

System: iDCs
Experiment: Phage binding by flow cytometry
Design: species or system human
Condition Details: binding of the phage clones to iDC, flow cytometry

{"Substance": "SPGLSLVSHMQT [DC13]", "Binding": "+++ (binding <80%: +++)"}
{"Substance": "QLPRTAL [DC10]", "Binding": "+++ (binding <80%: +++)"}
{"Substance": "GETRAPL [DC19]", "Binding": "+++ (binding <80%: +++)"}
